Listing of entries alongside the reported cell count.
- Measurement protocol: compounds altering HSF1 focus formation in cells – imaging, Selleck Cancer Library (AID 1347162)
- Settings: human cells, HSF1 nuclear foci imaging, at 10 µM; measured here: cell number
Just the number, please, no unit attached.

Worked cases, cell count given:
Compound	Property	Numeric value
Cc1cc2c(C(C)C)c(O)c(O)c(C=O)c2c(O)c1-c1c(C)cc2c(C(C)C)c(O)c(O)c(C=O)c2c1O	cell count	5460
CCC(C)n1ncn(-c2ccc(N3CCN(c4ccc(OC[C@H]5CO[C@](Cn6cncn6)(c6ccc(Cl)cc6Cl)O5)cc4)CC3)cc2)c1=O (stereo not given in full)	cell count	6750
Cc1nc(-c2ccc(OCC(C)C)c(C#N)c2)sc1C(=O)O	cell count	6840
N#Cc1ccc(C(c2ccc(C#N)cc2)n2cncn2)cc1	cell count	6610

Now consider the entry below.
query: What value of cell count has been reported for the following compound? `COC(=O)Nc1nc2ccc(C(=O)c3cccs3)cc2[nH]1`
result: 6830

---

Listing of entries alongside the reported inhibition.
- Measurement protocol: growth inhibition, single agents and combos, HD-MB03, cell-based, BGB or cisplatin IC20 combos, synergistic combos for chromothripsis tumors (AID 1671455);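 note: 0% = vehicle DMSO and 100% = high DMSO as cytotoxic control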
- Settings: HD-MB03 medulloblastoma cells, at 0.5 µM, stronger effect = higher value
Numeric answer only, unit % assumed.

Worked cases, inhibition given:
Cc1ccnc2c1NC(=O)c1cccnc1N2C1CC1 -18.2
Cc1nc2ccc(CN(C)c3ccc(C(=O)N[C@@H](CCC(=O)O)C(=O)O)s3)cc2c(=O)[nH]1 78.5

query: What value of inhibition has been reported for the following compound? `CN(C)c1ccc(C(=C2C=CC(=[N+](C)C)C=C2)c2ccc(N(C)C)cc2)cc1`
result: 59.5

query: How about `Cc1oncc1C(=O)Nc1ccc(C(F)(F)F)cc1` ?
result: 1.82

query: How about `CCN1CCN(c2cc3c(cc2F)c(=O)c(C(=O)O)cn3C2CC2)CC1` ?
result: -4.62

query: How about `O=c1c(O)c(-c2ccc(O)c(O)c2)oc2cc(O)cc(O)c12` ?
result: -8.42

query: How about `Nc1nc(=S)c2[nH]cnc2[nH]1` ?
result: -3.75

query: How about `C[C@H]1COc2c(C3(N)CC3)c(F)cc3c(=O)c(C(=O)O)cn1c23` ?
result: -8.87

query: How about `O=NN(CCCl)C(=O)NCCCl` ?
result: -9.81

query: How about `O=C(O)CCCCCCCC(=O)O` ?
result: -14.1

query: How about `CCn1cc(C(=O)O)c(=O)c2cc3c(cc21)OCO3` ?
result: 1.11

---

Listing of entries alongside the reported nuclear beta-catenin stimulation.
- Measurement protocol: Wnt pathway potentiators raising nuclear beta-catenin – imaging, WNT3A-conditioned medium, mouse C2C12, NPC library, primary screen (AID 1117326); note: reference of the scale not given here
- Settings: at 10 µM, stronger effect = higher value
Numeric answer only, unit % assumed.

Worked cases, nuclear beta-catenin stimulation given:
Compound	Display unit	nuclear beta-catenin stimulation
COc1cc2c(cc1OC)C(=O)C(CC1CCN(Cc3ccccc3)CC1)C2 (stereo not drawn)	%	-1
O=C(c1ccc(F)cc1)C1CCN(CCn2c(=S)[nH]c3ccccc3c2=O)CC1	%	2.2
O=C1c2cccc3c2[C@H](CCC3)CN1[C@@H]1CN2CCC1CC2	%	0.4
O=C(Nc1ccc([N+](=O)[O-])cc1Cl)c1cc(Cl)ccc1O	%	56.2
NC1CCN(c2nc3c(cc2F)c(=O)c(C(=O)O)cn3-c2ccc(F)cc2F)C1 (stereo not drawn)	%	1
CCOC(=O)[C@H](CCc1ccccc1)N[C@@H](C)C(=O)N1CCC[C@H]1C(=O)O	%	4.4
Cc1cccc(C)c1OCC(C)N (stereo not drawn)	%	1.9
CN1C(C)(C)CCCC1(C)C	%	1.1

query: What value of nuclear beta-catenin stimulation has been reported for the following compound? `c1cnc(N2CCN(Cc3ccc4c(c3)OCO4)CC2)nc1`
result: 0.7

query: How about `O=C1c2cccc(O)c2C(=O)c2c(O)cccc21` ?
result: -0.6

query: How about `O=C1[C@H]2CCCC[C@H]2C(=O)N1CCCCN1CCN(c2nsc3ccccc23)CC1` ?
result: 10.9
